The following molecules are listed with their measured Average Relative Luminescence Units values.
# TEST_SYSTEM: CD28 (Homo sapiens, UniProt P10747)
# PROTOCOL: Jurkat/IL2 reporter assay: blockade of CD28 costimulation (plate-bound anti-CD3/CD86-Fc)
# Format: cell-based
# Parameters: host or cells: Jurkat cells expressing an IL-2-luciferase reporter
# SETUP_CONDITIONS: Table E5; protein diluted to 40 nM before mixing with cells; 5 hours
READOUT_NAME: Average Relative Luminescence Units

{"MOLECULE": "E35D/M47I: variant CD80 IgV-Fc, IgV SEQ ID NO:177 (protein) VIHVTKEVKEVATLSCGHNVSVEELAQTRIYWQKDKKMVLTMMSGDINIWPEYKNRTIFDITNNLSIVILALRPSDEGTYECVVLKYEKDAFKREHLAEVTLSVKAD", "RESULT": "1444 Relative Luminescence Units"}
{"MOLECULE": "M43I/C82R: variant CD80 IgV-Fc, IgV SEQ ID NO:157 (protein) VIHVTKEVKEVATLSCGHNVSVEELAQTRIYWQKEKKMVLTMISGDMNIWPEYKNRTIFDITNNLSIVILALRPSDEGTYERVVLKYEKDAFKREHLAEVTLSVKAD", "RESULT": "1326 Relative Luminescence Units"}
{"MOLECULE": "T41S/A71D/V84A: variant CD80 IgV-Fc, IgV SEQ ID NO:175 (protein) VIHVTKEVKEVATLSCGHNVSVEELAQTRIYWQKEKKMVLSMMSGDMNIWPEYKNRTIFDITNNLSIVILDLRPSDEGTYECVALKYEKDAFKREHLAEVTLSVKAD", "RESULT": "2685 Relative Luminescence Units"}
{"MOLECULE": "V68M/L70M/A71D/E95K: variant CD80 IgV-Fc, IgV SEQ ID NO:210 (protein) VIHVTKEVKEVATLSCGHNVSVEELAQTRIYWQKEKKMVLTMMSGDMNIWPEYKNRTIFDITNNLSIMIMDLRPSDEGTYECVVLKYEKDAFKRKHLAEVTLSVKAD", "RESULT": "2067 Relative Luminescence Units"}
{"MOLECULE": "V22I/L70M/A71D: variant CD80 IgV-Fc, IgV SEQ ID NO:160 (protein) VIHVTKEVKEVATLSCGHNVSIEELAQTRIYWQKEKKMVLTMMSGDMNIWPEYKNRTIFDITNNLSIVIMDLRPSDEGTYECVVLKYEKDAFKREHLAEVTLSVKAD", "RESULT": "253 Relative Luminescence Units"}
{"MOLECULE": "K34E/T41A/L72V: variant CD80 IgV-Fc, IgV SEQ ID NO:174 (protein) VIHVTKEVKEVATLSCGHNVSVEELAQTRIYWQEEKKMVLAMMSGDMNIWPEYKNRTIFDITNNLSIVILAVRPSDEGTYECVVLKYEKDAFKREHLAEVTLSVKAD", "RESULT": "4225 Relative Luminescence Units"}
{"MOLECULE": "V22L/E35D/M43L/A71G/D76H: variant CD80 IgV-Fc, IgV SEQ ID NO:218 (protein) VIHVTKEVKEVATLSCGHNVSLEELAQTRIYWQKDKKMVLTMLSGDMNIWPEYKNRTIFDITNNLSIVILGLRPSHEGTYECVVLKYEKDAFKREHLAEVTLSVKAD", "RESULT": "2004 Relative Luminescence Units"}
